Each recorded value in this set is attributed to paper PMC5540273.

Could you please report measured %Inh for the items listed next?
tested on: ERK8; construct: gene MAPK15; conditions: concentration: 1 μM, replicates: in singlicate; n = 1;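 further: KINOMEscan kinase panel screen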
Numbers only, in %.

CCC(=O)c1c(-c2ccccc2)c2cc(Cl)ccc2c(=O)n1Cc1cc(C(=O)NC2CC2)n(C)n1 :: 0
O=c1cc(N2CCOCC2)nc2n(Cc3ccc(F)c(Cl)c3)ccn12 [GSK2297099] :: 0
CCC(=O)c1c(-c2ccccc2)c2cc(Cl)ccc2c(=O)n1Cc1cc(S(C)(=O)=O)n(CC(F)F)n1 :: 6

Could you tell me %Inh for each of these molecules? They are listed below.
1. COc1cc2ncn(-c3cc(OCc4ccc(S(C)(=O)=O)cc4)c(C(N)=O)s3)c2cc1OC [GW869979]
2. O=C(Nc1n[nH]c2cc(-c3ccccc3F)ccc12)C1CC1 [SB-733371]

[A]
1: 12; 2: 43

Could you tell me %Inh for each of these molecules? They are listed below.
1. O=C(NCCNc1ccnc(Nc2ccc(F)cc2)n1)Nc1ccc2c(c1)OCO2 [GSK1379882]
2. COc1cccc(C2=C(Nc3cccc(C(=O)O)c3)C(=O)NC2=O)c1 [SB-390770]

[A]
1: 0; 2: 36

Could you tell me %Inh for each of these molecules? They are listed below.
1. COC(=O)c1c(-c2ccccc2)c2cc(Br)ccc2c(=O)n1Cc1ccc(NC(=O)CCC(=O)O)cc1
2. Nc1nc(-c2ccccc2F)c(-c2ccnc3ccccc23)s1 [GW560459]
3. COc1cc(Nc2ccnc3ccc(C(F)(F)F)cc23)cc(OC)c1OC [GW577382]
4. Cl.NS(=O)(=O)c1cccc(Nc2cc(-c3ccc(F)cc3)n[nH]2)c1 [GW824645]
5. Nc1ncnc2c1ncn2-c1cccc2ccccc12 [SKF-97184]
6. Nc1n[nH]c2nnc(-c3ccccc3)c(-c3ccccc3)c12 [GW554060]

[A]
[0, 0, 0, 3, 9, 50]

Could you tell me %Inh for each of these molecules? They are listed below.
1. Cc1nnc(-c2ccc3ncn(-c4ccc(S(C)=O)cc4)c3c2)o1 (stereo not drawn)
2. COc1cc2ncn(-c3cc(OCCCc4ccccc4)c(C(N)=O)s3)c2cc1OC [GSK205189]
3. Cc1c(Cn2c(C)nn3c(=O)cc(N4CCO[C@H](C)C4)nc23)cccc1C(F)(F)F [GSK2373690]
4. CC(C)(C)c1ccc(C(=O)Nc2cn3cc(-c4ccccc4)ccc3n2)cc1
5. CCS(=O)(=O)c1ccc(OC)c(Nc2ncc(-c3ccc(F)cc3)o2)c1.Cl [GW591947]

[A]
1. 6
2. 3
3. 0
4. 20
5. 0

---

test system: STK39; conditions: concentration: 1 μM, replicates: in singlicate; n = 1
Quick rule: %Inh of at least 20% means condition met, below that means condition not met.

Observe how each entry below is paired with its result.
Cc1c(Cn2c(C)nn3c(=O)cc(N4CCO[C@H](C)C4)nc23)cccc1C(F)(F)F [GSK2373690] :: condition met
CN(C)c1cc(-c2ccc3c(N)n[nH]c3c2)nc(N)n1 [GSK2219329] :: condition not met
O=c1cc(N2CCOCC2)nc2n(Cc3ccc(F)c(Cl)c3)ccn12 [GSK2297099] :: condition not met
CCS(=O)c1ccc(-c2coc3ccc(-c4nnc(C)o4)cc23)cc1 (centres unmarked) :: condition met
CCC(=O)c1c(-c2ccccc2)c2cc(Cl)ccc2c(=O)n1Cc1ccc(C(=O)O)cc1 :: condition met
CC(C)(C)c1ccc(C(=O)Nc2cn3cc(-c4ccccc4)ccc3n2)cc1 :: condition not met
Nc1nc(N)c2nc(-c3ccccc3)[nH]c2n1 [SKF-12778] :: condition not met
Cc1ccc(Oc2ccc(Nc3ncnc4cc[nH]c34)cc2C)cn1 :: condition not met

[Q] # bool: %Inh of FC(F)(F)c1ccc(-c2ncn(CCCN3CCOCC3)c2-c2ccncc2)cc1 [SB-217780] >= 20%
[A] condition not met

[Q] # bool: %Inh of O=C(Nc1n[nH]c2cc(-c3ccccc3F)ccc12)C1CC1 [SB-733371] >= 20%
[A] condition not met

[Q] # bool: %Inh of COc1cc2ncn(-c3cc(OCCCc4ccccc4)c(C(N)=O)s3)c2cc1OC [GSK205189] >= 20%
[A] condition not met

[Q] # bool: %Inh of Fc1cccc(CSc2nnc(-c3ccc4c(c3)CCO4)o2)c1 >= 20%
[A] condition not met

[Q] # bool: %Inh of COc1ccc(Nc2nccc(N3CCC(NS(=O)(=O)c4ccc(NC(C)=O)cc4)C3)n2)cc1 (centres unmarked) [GSK1379729] >= 20%
[A] condition not met

[Q] # bool: %Inh of Cn1c(=O)c(F)c(Nc2ccc(I)cc2F)c2c(=O)n(OC[C@H](O)CO)cnc21 >= 20%
[A] condition met

[Q] # bool: %Inh of COC(=O)c1c(-c2ccccc2)c2cc(C)ccc2c(=O)n1Cc1ccccc1 >= 20%
[A] condition not met

[Q] # bool: %Inh of COc1cccc(-n2cnc3c(N)ncnc32)c1 [SKF-97416] >= 20%
[A] condition met

[Q] # bool: %Inh of Nc1n[nH]c2nnc(-c3ccccc3)c(-c3ccccc3)c12 [GW554060] >= 20%
[A] condition met

[Q] # bool: %Inh of Cc1nnc(-c2ccc(C)c(-c3ccc(C(=O)O)cc3)c2)o1 [GW608005] >= 20%
[A] condition not met

[Q] # bool: %Inh of COC(=O)c1c(-c2ccccc2)c2cc(Br)ccc2c(=O)n1Cc1ccc(NC(=O)CCC(=O)O)cc1 >= 20%
[A] condition not met

[Q] # bool: %Inh of COc1cc2ncn(-c3cc(OCc4ccc(S(C)(=O)=O)cc4)c(C(N)=O)s3)c2cc1OC [GW869979] >= 20%
[A] condition not met

---

Could you please report measured %Inh for the items listed next?
tested on: MET; details: concentration: 1 μM, replicates: in singlicate; n = 1
Answers are plain numbers, in %.

Observe how each entry below is paired with its result.
COc1ccc(-n2cnc3c(N)ncnc32)cc1 :: 0
Nc1n[nH]c2nnc(-c3ccccc3)c(-c3ccccc3)c12 :: 0
Nc1ncnc2c1ncn2-c1ccc(Cl)cc1 :: 0
COc1ccc(-c2cc3c(C)nc(N)nc3n([C@H]3CC[C@H](OCCO)CC3)c2=O)cn1 :: 0
Cc1ccc(Oc2ccc(Nc3ncnc4cc[nH]c34)cc2C)cn1 :: 4
Cc1nn2c(=O)cc(N3CCOCC3)nc2n1Cc1cccc(Cl)c1Cl :: 1
CCC(=O)c1c(-c2ccccc2)c2cc(Cl)ccc2c(=O)n1Cc1ccc(C(=O)O)cc1 :: 0
COc1cc2ncn(-c3cc(OCc4ccc(S(C)(=O)=O)cc4)c(C(N)=O)s3)c2cc1OC :: 9

Could you tell me %Inh for each of these compounds? They are listed below.
1. CCS(=O)c1ccc(-c2coc3ccc(-c4nnc(C)o4)cc23)cc1 (centres unmarked)
2. O=C(Nc1n[nH]c2nc(-c3ccccc3)c(Br)cc12)C1CC1
3. Cl.c1ccc(Cn2cnc3cc(Nc4ncnc5ccccc45)ccc32)cc1
4. COc1cc(Nc2nccc(N3CCC(NC(=O)C4COc5ccccc5O4)C3)n2)cc(OC)c1OC (centres unmarked)
5. COc1ccc(-c2cc3c(C)nc(N)nc3n([C@H]3CC[C@H](O)CC3)c2=O)cn1

[A]
1: 0; 2: 0; 3: 33; 4: 19; 5: 0

---

system: DLK; construct: gene MAP3K12; conditions: concentration: 1 μM, replicates: in singlicate; n = 1
Quick rule: %Inh of at least 6% means 1, below that means 0.

Observe how each entry below is paired with its result.
COc1cc2nccc(Nc3ccc(OCc4ccc(NC(C)=O)cc4)cc3)c2cc1OC.Cl :: 1
CCc1nc(-c2cccc(C)c2)c(-c2ccncc2)s1 :: 0
COc1cc2nccc(Nc3cccc(Oc4ccccc4)c3)c2cc1OC.Cl :: 1
CCS(=O)(=O)c1ccc(OC)c(Nc2ncc(-c3ccc(F)cc3)o2)c1.Cl :: 1
CCS(=O)c1ccc(-c2coc3ccc(-c4nnc(C)o4)cc23)cc1 (stereo not shown) :: 1
COc1cc2ncn(-c3cc(OCc4ccncc4Br)c(C(N)=O)s3)c2cc1OC :: 1

[Q] # bool: %Inh of COc1cccc(-n2cnc3c(N)ncnc32)c1 >= 6%
[A] 1

[Q] # bool: %Inh of COC(=O)c1c(-c2ccccc2)c2cc(Br)ccc2c(=O)n1Cc1ccc(NC(=O)CCC(=O)O)cc1 >= 6%
[A] 0

[Q] # bool: %Inh of CCCC(=O)Nc1n[nH]c2ncc(-c3cccc4ccccc34)cc12 >= 6%
[A] 0

[Q] # bool: %Inh of COc1ccc(-c2cc3c(C)nc(N)nc3n([C@H]3CC[C@H](OCCO)CC3)c2=O)cn1 >= 6%
[A] 0

[Q] # bool: %Inh of CCC(=O)c1c(-c2ccccc2)c2cc(Cl)ccc2c(=O)n1Cc1ccc(C(=O)O)cc1 >= 6%
[A] 0

[Q] # bool: %Inh of CN(C)c1cc(-c2ccc3c(N)n[nH]c3c2)nc(N)n1 >= 6%
[A] 1

[Q] # bool: %Inh of COc1ccc(Nc2nccc(N3CCC(NS(=O)(=O)c4ccc(NC(C)=O)cc4)C3)n2)cc1 (stereo not shown) >= 6%
[A] 1

[Q] # bool: %Inh of Cc1cccc(-c2cc(-c3c[nH]nc3-c3ccccn3)ccn2)c1 >= 6%
[A] 1

[Q] # bool: %Inh of COc1cc(Nc2nccc(N3CCC(NC(=O)C4COc5ccccc5O4)C3)n2)cc(OC)c1OC (stereo not shown) >= 6%
[A] 1

[Q] # bool: %Inh of Cn1c(=O)c(F)c(Nc2ccc(I)cc2F)c2c(=O)n(OC[C@H](O)CO)cnc21 >= 6%
[A] 0

[Q] # bool: %Inh of O=C(Nc1n[nH]c2nc(-c3ccccc3)c(Cl)cc12)C1CC1 >= 6%
[A] 1

[Q] # bool: %Inh of COc1cc(Nc2nccc(N3CCC(NC(=O)C(C)c4ccc(Cl)cc4)C3)n2)cc(OC)c1OC (stereo not shown) >= 6%
[A] 1
